TARGET_UNDER_TEST: Pancreatic elastase (Sus scrofa) (UniProt P08419+P00772)
ASSAY: Inhibition of porcine pancreatic elastase assessed as Ac-Ala-Ala-Pro-Ala-p-nitroanilide conversion to p-nitroaniline by spectrophotometric analysis
Assay type: protein assay
Where a SMILES comes first, the peptide text is derived from it. [ ]: non-standard residue; d: D form. Lac = C[C@H](O)C(=O)O
TEST_READOUT: log10 ID50 (log10 of the value in µg/mL)
Record value = log10 of ID50 given in µg/mL.

Specify reported log10 ID50 for the compound shown: CCOC(=O)N(C)NC(=O)[C@@H]1CCCN1C(=O)[C@H](C)NC(=O)[C@H](C)NC(=O)OCc1ccccc1
1.48

Indicate the recorded log10 ID50 value for this compound: CC(=O)N[C@@H](C)C(=O)N[C@@H](C)C(=O)N1CCC[C@H]1C(=O)NN(C)C(=O)O[C@@H](C)C(=O)NCc1ccccc1
-0.52

Give the measured log10 ID50 for CC(=O)N[C@@H](C)C(=O)N[C@@H](C)C(=O)N1CCC[C@H]1C(=O)NN(C)C(=O)O[C@@H](C)C(=O)Nc1ccccc1
-0.40

Please give measured log10 ID50 of the following entry: C[C@H](NC(=O)OCc1ccccc1)C(=O)N[C@@H](C)C(=O)N1CCC[C@H]1C(=O)NN(C)C(=O)Oc1ccc([N+](=O)[O-])cc1
0.00

Recall and state the measured log10 ID50 for CCOC(=O)[C@H](C)OC(=O)[C@H](C)OC(=O)[C@@H]1CCCN1C(=O)[C@H](C)NC(=O)[C@@H]1CCCN1C(C)=O (Ac-PAP[Lac][Lac]-OEt) .
2.22

Tell us which log10 ID50 value is on record for CCOC(=O)[C@H](C)OC(=O)[C@H](C)NC(=O)[C@@H]1CCCN1C(=O)[C@H](C)NC(=O)[C@H](C)NC(C)=O (Ac-AAPA[Lac]-OEt)
2.22

Give reported log10 ID50 value for CCOC(=O)N(C)NC(=O)[C@@H]1CCCN1C(=O)[C@H](C)NC(=O)[C@H](C)NC(=O)OC(C)(C)C
1.95

Look up and state reported log10 ID50 for CCOC(=O)N(C)NC(=O)[C@@H]1CCCN1C(=O)[C@H](C)NC(=O)[C@H](C)NC(C)=O
1.30

For CC(=O)N[C@@H](C)C(=O)N[C@@H](C)C(=O)N1CCC[C@H]1C(=O)NN(C)C(=O)O[C@@H](C)C(=O)NN , write its log10 ID50.
-0.60

Output log10 ID50 of CCOC(=O)[C@H](C)OC(=O)N(C)NC(=O)[C@@H]1CCCN1C(=O)[C@H](C)NC(=O)[C@@H]1CCCN1C(C)=O
0.78

Input CCOC(=O)[C@H](Cc1ccccc1)NC(=O)[C@H](C)OC(=O)N(C)NC(=O)[C@@H]1CCCN1C(=O)[C@H](C)NC(=O)[C@H](C)NC(C)=O , output reported log10 ID50.
0.30

Note down log10 ID50 recorded for CC(=O)N[C@@H](C)C(=O)N[C@@H](C)C(=O)N1CCC[C@H]1C(=O)NN(C)C(=O)O[C@@H](C)C(=O)OCc1ccccc1
-0.30

Using the record for CCOC(=O)[C@H](C)OC(=O)[C@H](C)OC(=O)N(C)NC(=O)[C@@H]1CCCN1C(=O)[C@H](C)NC(=O)[C@@H]1CCCN1C(C)=O , state its measured log10 ID50.
0.18

Indicate its recorded log10 ID50; the compound in question is CC(=O)N[C@@H](C)C(=O)N[C@@H](C)C(=O)N1CCC[C@H]1C(=O)NN(C)C(=O)O[C@@H](C)C(N)=O
-0.40

Please give the documented log10 ID50 of CC(=O)N1CCC[C@H]1C(=O)N[C@@H](C)C(=O)N1CCC[C@H]1C(=O)NN(C)C(=O)OC(C)C(N)=O (mixture of isomers)
-0.52

Let me know recorded log10 ID50 for CCOC(=O)C(C)OC(=O)N(C)NC(=O)[C@@H]1CCCN1C(=O)[C@H](C)NC(=O)[C@@H]1CCCN1C(C)=O (stereo partly drawn) , thanks.
0.65

Input CC(=O)N[C@@H](C)C(=O)N[C@@H](C)C(=O)N1CCC[C@H]1C(=O)NN(C)C(=O)O[C@@H](C)C(=O)N(C)N , output reported log10 ID50.
0.30

Identify log10 ID50 associated with the compound CCOC(=O)[C@H](C)OC(=O)[C@H](C)OC(=O)[C@@H]1CCCN1C(=O)[C@H](C)NC(=O)[C@H](C)NC(C)=O (Ac-AAP[Lac][Lac]-OEt)
1.52

Give reported log10 ID50 value for CCOC(=O)[C@H](C)OC(=O)N(C)NC(=O)[C@@H]1CCCN1C(=O)[C@H](C)NC(=O)[C@H](C)NC(C)=O
0.00

Give log10 ID50 for CNC(=O)[C@H](C)OC(=O)N(C)NC(=O)[C@@H]1CCCN1C(=O)[C@H](C)NC(=O)[C@H](C)NC(C)=O
-0.40

Give the reported value of log10 ID50 for this record: CC(=O)N[C@@H](C)C(=O)N[C@@H](C)C(=O)N1CCC[C@H]1C(=O)NN(C)C(=O)O[C@@H](C)C(=O)O
2.04

Tell me log10 ID50 reported for CCOC(=O)[C@H](C)OC(=O)N(C)NC(=O)[C@H](CC(C)C)NC(=O)[C@H](C)NC(=O)[C@@H]1CCCN1C(C)=O
1.18

Query log10 ID50 for CCOC(=O)[C@H](C)OC(=O)N(C)NC(=O)[C@H](CC(C)C)NC(=O)[C@H](C)NC(=O)[C@H](C)NC(C)=O
0.95
